Test: chemical genetic growth profiling, strain panel (AID 1159580);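 note: tested at 20 µM; growth read once vehicle control cultures reached saturation at 30 °C; 1 = growth at the plate median or of vehicle wells; lower values mean less growth of the strain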
Details: S. cerevisiae deletion strains, growth OD, locus YDL035C, strain GPR1
Screen size: about 5,500 compounds; about 2,000 (36%) were called active. About 18% were inconclusive and are not listed. Cut-off read from the data, not from the text of the source: active = normalized growth mostly below about 0.91 (no sharp cut-off); inconclusive = no clear call, values can overlap the other calls; inactive = mostly above about 0.92. The list shows a part of the results.
Entry note: the call must match one of 1 (yes) for active, 0 (no) for inactive

CCN1C[C@]2(C)CC[C@H](OC)[C@]34C2[C@H](O)[C@]2(OCO[C@@]25C[C@H](OC)[C@H]2C[C@]3(O)C5[C@H]2O)C14: 0 (no)
O=C(OC1Cc2c(O)cc(O)cc2OC1c1cc(=O)c(O)c2c(O)c(O)cc(C3Oc4cc(O)cc(O)c4CC3O)c2c1)c1cc(O)c(O)c(O)c1 (centres undefined): 1 (yes)
O=C(O[C@@H]1Cc2c(O)cc(O)cc2O[C@@H]1c1cc(O)c(=O)c2c(O)c(O)cc([C@H]3Oc4cc(O)cc(O)c4C[C@H]3O)c2c1)c1cc(O)c(O)c(O)c1: 1 (yes)

Task: Dear colleague, could you share the recorded outcome for CC12CCC3c4ccc(OC(=O)c5ccccc5)cc4CCC3C1CCC2O (centres undefined) when you have a moment?
Output: 0 (no)

---

Kindly state normalized growth for each of the entries shown.
Assay: chemical genetic growth profiling, strain panel (AID 1159580);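 note: tested at 20 µM; growth read once vehicle control cultures reached saturation at 30 °C; 1 = growth at the plate median or of vehicle wells; lower values mean less growth of the strain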
Details: S. cerevisiae deletion strains, growth OD, locus YHR094C, strain hxt1, active compounds read low
Among all 5,500 compounds or so, about 2,000 (36%) were called active. Not shown: some 18% with an inconclusive outcome. This is one part of the list.
Numbers only.

Check out these entries, answers already filled in.
C[C@@H]1CC[C@@]2(OC1)O[C@H]1CC3C4CC[C@H]5C[C@@H](O)CC[C@]5(C)C4CC[C@]3(C)[C@H]1[C@@H]2C (some centres not stated): 0.97
NC(=O)NCCCC(N)C(=O)O (configuration not stated): 0.995
CC1CCC2(OC1)OC1CC3C4CC[C@H]5C[C@@H](O)CC[C@]5(C)C4CC(=O)[C@]3(C)C1C2C (some centres not stated): 0.991

Go through the list and state normalized growth for each entry.
1. C[C@@H]1CC[C@@]2(OC1)OC1CC3C4CC=C5C[C@@H](O)CC[C@]5(C)C4CC[C@]3(C)C1[C@@H]2C (some centres not stated)
2. O=C(O[C@@H]1Cc2c(O)cc(O)cc2O[C@@H]1c1cc(O)c(=O)c2c(O)c(O)cc([C@H]3Oc4cc(O)cc(O)c4C[C@H]3O)c2c1)c1cc(O)c(O)c(O)c1
3. CC1CC[C@@]2(OC1)O[C@H]1CC3C4CC[C@@H]5CC(=O)CC[C@]5(C)C4CC[C@]3(C)[C@H]1[C@@H]2C (some centres not stated)
4. C[C@@H]1CC[C@@]2(NC1)O[C@H]1C[C@H]3C4CC=C5C[C@@H](O)CC[C@]5(C)C4CC[C@]3(C)C1[C@@H]2C (some centres not stated)

Output:
1: 0.985; 2: 1.02; 3: 0.985; 4: 0.0989

---

Assay: chemical genetic growth profiling, strain panel (AID 1159580);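 note: tested at 20 µM; growth read once vehicle control cultures reached saturation at 30 °C; 1 = growth at the plate median or of vehicle wells; lower values mean less growth of the strain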
Conditions: S. cerevisiae deletion strains, growth OD, locus YFR003C, strain YPI1
Out of some 5,500 compounds screened, about 2,000 (36%) were called active. About 18% were inconclusive and are not listed. Rule as the data show it: active = normalized growth mostly below about 0.91 (no sharp cut-off); inconclusive = no clear call, values can overlap the other calls; inactive = mostly above about 0.92. The list shows a part of the results.
Hi there, use one of these labels in your reply, thanks! yes (active), no (inactive)

O=C1/C(=C/c2ccccn2)CCc2ccccc21: no
Cc1c(C)c(C)c(C(O)c2ccccc2)c(C)c1C (stereo not drawn): no
FC(F)(F)c1ccc(N2CCc3ccccc3C2)c(NC(=S)Nc2cc(Cl)cc(Cl)c2)c1: no

Task: Call for entry OC1(C(F)(F)F)CC(c2ccc3ccccc3c2)=NN1 (stereo not drawn) :
Output: yes

Task: Please indicate how the test categorized `O/N=C(/c1ccc(Cl)cc1)c1cc2ccccc2o1` .
Output: no

Task: Kindly provide the recorded test outcome for the following compound: `COc1ccccc1NC(=S)N/N=C\c1ccccc1O`
Output: no

Task: Check the results log: what was the call for `CC(C)(C)C(=O)NC(=S)N/N=C\c1cc(Cl)cc(Cl)c1O` ?
Output: no

Task: Lab log entry: `Oc1c(Cl)cc(Cl)cc1/C=N\NC(=S)Nc1cc(C(F)(F)F)cc(C(F)(F)F)c1` — outcome as called in the assay?
Output: yes

Task: Test call for this compound, please: `Cc1ccc(C)n1-c1ccc(/C=C2/C(=O)Nc3ccccc32)cc1`
Output: no

Task: Per the records of this test, what outcome belongs to `O=C1C(Cl)=C(Oc2cc(Cl)c(Cl)cc2Cl)C(=O)c2ccccc21` ?
Output: no

Task: Hi, do you know how `Oc1c(Br)cc(Br)cc1C=Nc1ccc(Sc2ccccc2)nc1Sc1ccccc1` came out in this test?
Output: no

Task: Assay outcome for `COCCCNC(=S)N/N=C\c1cc(Br)ccc1O` : what was it?
Output: no

Task: Hi, sorry to bother you, what did the test record for `O=C1Nc2ccccc2/C1=C\c1c(Cl)cccc1Cl` ?
Output: no

Task: // param item: `O=[N+]([O-])c1cc(Cl)cc([N+](=O)[O-])c1Nc1ccccc1` ; yields the recorded call
Output: no

Task: Identify the outcome logged in this assay for the compound shown: `CCOC(=O)N/N=C\c1cc(Cl)cc(Cl)c1O`
Output: no

Task: Recorded call for `CCCCNC(=S)N/N=C\c1cc(Cl)cc(Cl)c1O` ?
Output: no

Task: Short answer needed: outcome of this test for Cc1nnc2n1N=C(c1ccc(CC(C)C)cc1)C(C)S2 (stereo not drawn) ?
Output: no

Task: What outcome does the record of this test show for CC(NC(=S)N/N=C\c1ccccc1O)c1ccccc1 (stereo not drawn) ?
Output: no

Task: Please indicate how the test categorized `Cc1cc(Oc2ccc(C(F)(F)F)cc2NS(C)(=O)=O)cc(C)c1Cl` .
Output: no

Task: Recorded call for `c1ccc(-c2nnc(-c3ccccn3)nc2-c2ccccc2)cc1` ?
Output: no

---

Assay: chemical genetic growth profiling, strain panel (AID 1159580);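 note: tested at 20 µM; growth read once vehicle control cultures reached saturation at 30 °C; 1 = growth at the plate median or of vehicle wells; lower values mean less growth of the strain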
Conditions: S. cerevisiae deletion strains, growth OD, locus YKR001C, strain vps1, active compounds read low
Among all 5,500 compounds or so, about 2,000 (36%) were called active. Another 18% or so got no clear call; they are omitted. This is one part of the list.
readout.name: normalized growth
Give bare numbers.

Examples with their reported normalized growth follow.
CCOCN(C(=O)CCl)c1c(C)cccc1CC: 0.986
COC(=O)C1OC(=O)C2OC23C1(C)CCC1C2(C)C(OC(C)=O)CC(OC(C)=O)C(C)(C)C2CC(=O)C13C (configuration not stated): 0.983
Oc1ccc2c(c1)OCC1(O)Cc3cc(O)c(O)cc3C21 (configuration not stated): 1.03

// each compound listed below needs its normalized growth
1. C[C@]12CCC3c4ccc(O)cc4CCC3C1C[C@@H](O)[C@@H]2O (some centres not stated)
2. CCC1OC(=O)[C@H](C)C(=O)[C@H](C)[C@@H](OC2O[C@H](C)C[C@H](N(C)C)[C@H]2O)[C@](C)(OC)C2(CCCn3cnc(-c4cccnc4)c3)C[C@@H](C)C(=O)[C@H](C)[C@H]3N(C2)C(=O)O[C@]13C (some centres not stated)
3. C=C[C@H]1CN2CC[C@H]1C[C@@H]2[C@@H](OC(=O)OCC)c1ccnc2ccc(OC)cc12
4. CCOC(=O)c1c(C)cc(OC)cc1O
5. NC(=O)c1ncn([C@@H]2O[C@H](CO)[C@@H](O)[C@H]2O)n1
6. Cc1cc(OC(=O)c2c(C)cc(OC(=O)c3c(C)cc(O)cc3O)cc2O)cc(O)c1C(=O)O

Output:
1: 0.972; 2: 0.997; 3: 1.01; 4: 0.842; 5: 0.984; 6: 0.967

Required: normalized growth, one value per compound below.
1. CC12CCC3c4ccc(OCc5ccccc5)cc4CCC3C1C[C@@H](O)[C@@H]2O (some centres not stated)
2. NC(=NCCC[C@H](N)C(=O)O)N[N+](=O)[O-]
3. COc1ccc(-c2oc3cc(O[C@H]4O[C@H](CO)[C@@H](O)[C@H](O)[C@H]4O)c(OC)c(O)c3c(=O)c2OC)cc1O
4. CCCCC1C(=O)N(c2ccccc2)N(c2ccc(O)cc2)C1=O (configuration not stated)
5. COc1cc(OC)c2ccc(=O)oc2c1
6. CC(C)C1COc2cc3oc(=O)ccc3cc2O1 (configuration not stated)
7. COc1ccc2c(c1)CCC1C2CC[C@@]2(C)C1CC[C@@H]2O (some centres not stated)
8. CC(C)(O)[C@@H]1Cc2cc3ccc(=O)oc3cc2O1

Output:
1. 0.062
2. 0.98
3. 1
4. 0.927
5. 0.945
6. 0.0786
7. 0.359
8. 1.01

I have 5 compounds here; please give me normalized growth for each one.
1. NC(=O)CN1CCCC1=O
2. C=C(C)[C@H]1COc2cc3oc(=O)ccc3cc2O1
3. Oc1cc2c(cc1O)C1c3ccc(O)c(O)c3OCC1(O)C2 (configuration not stated)
4. O=c1c(O)c(-c2ccc(O)c(O)c2)oc2cc(O)cc(O)c12
5. CNC(C)C(O)c1ccccc1 (configuration not stated)

Output:
1: 1.01; 2: 0.0831; 3: 1.03; 4: 0.94; 5: 1.03
